These entries and their values trace back to paper PMC5567267.

# TARGET DESC: PKD2 (Homo sapiens)
# Construct: made in house; host or cells: HEK293T cells, transient transfection with pDEST27-PRKD2, stimulated with 500 nM PDB before lysis
# Sequence (Q9BZL6 1-878): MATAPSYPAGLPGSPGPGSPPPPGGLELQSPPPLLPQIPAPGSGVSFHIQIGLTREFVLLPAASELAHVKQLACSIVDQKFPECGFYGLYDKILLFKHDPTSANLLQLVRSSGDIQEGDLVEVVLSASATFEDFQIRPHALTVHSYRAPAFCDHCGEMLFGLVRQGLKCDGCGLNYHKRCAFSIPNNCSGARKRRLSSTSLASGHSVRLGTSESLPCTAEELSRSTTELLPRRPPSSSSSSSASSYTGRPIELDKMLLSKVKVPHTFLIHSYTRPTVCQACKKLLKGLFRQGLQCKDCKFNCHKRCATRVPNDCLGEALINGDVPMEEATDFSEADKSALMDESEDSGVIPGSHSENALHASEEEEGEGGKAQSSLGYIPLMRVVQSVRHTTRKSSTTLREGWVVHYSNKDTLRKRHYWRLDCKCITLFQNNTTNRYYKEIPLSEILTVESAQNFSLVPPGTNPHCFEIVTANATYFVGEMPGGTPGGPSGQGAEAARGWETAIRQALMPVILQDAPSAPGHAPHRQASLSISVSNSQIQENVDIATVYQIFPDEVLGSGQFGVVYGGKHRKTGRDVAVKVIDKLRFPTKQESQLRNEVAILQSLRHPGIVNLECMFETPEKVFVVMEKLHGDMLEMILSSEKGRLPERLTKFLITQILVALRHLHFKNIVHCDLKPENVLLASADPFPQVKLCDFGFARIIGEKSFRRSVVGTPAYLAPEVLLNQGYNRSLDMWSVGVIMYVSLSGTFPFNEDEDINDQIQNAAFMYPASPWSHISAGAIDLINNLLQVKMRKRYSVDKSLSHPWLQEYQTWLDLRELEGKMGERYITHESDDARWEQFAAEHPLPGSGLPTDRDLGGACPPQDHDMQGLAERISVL
# ASSAY EXPLANATION: PKD2 screening assay (in vitro radiometric kinase assay)
# Type: biochemical
# PROTOCOL CONDITIONS: 10 min; ESI table, initial screening of all analogues at 1µM; read-out: % PKD2 activity remaining (1µM) (average ±SD)
# Method: All 35 described analogues were characterized in vitro via an initial screening at 1 μM against PKD2. […] scanning of a coomassie stained SDS-polyacrylamide gel. […] determinations. […] Subsequently the papers were air-dried and counted using the Tri-Carb 2810 TR scintillation counter (Perkin-Elmer). Percentage of PKD2 inhibition was determined relative to a condition where no inhibitor was added (0,1% dimethylsulfoxide (DMSO)). […]
MEASURED ENDPOINT: remaining activity at 1 µM (%)

molecule=Cn1nc(CCCc2ccccc2)c2c(N)ncnc21 measured_endpoint="remaining activity at 1 µM" unit_of_measure=% quantitative_result=101
molecule="CCCCNc1nc(N)c2c(-c3ccsc3)nn(C(C)(C)C)c2n1 [Compound 13e]" measured_endpoint="remaining activity at 1 µM" unit_of_measure=% quantitative_result=82

a: CC(C)(C)n1nc(-c2c[nH]c3ccccc23)c2c(N)ncnc21
b: CC(C)(C)n1nc(-c2ccc(F)cc2)c2c(N)ncnc21
c: CC(C)(C)n1nc(Cc2cccc(Cl)c2)c2c(N)ncnc21
d: CC(C)(C)n1nc(Cc2ccccc2)c2c(N)ncnc21
Put the entries in order of remaining activity at 1 µM, starting with the largest number. Give the labels in the order specified.
b, c, d, a
